Data provenance: ChEMBL document CHEMBL2218924

target: Activin receptor type-1B (Homo sapiens); conditions: at 10 µM
The label depends only on residual activity: criterion met if it is at least 50%, criterion not met if it is smaller.

                                     smiles       answer_label
0  CCOC(=O)c1c(C)[nH]c(/C=C2\C(=O)Nc3ccccc32)c1C      criterion met
1  Nc1nc(Nc2ccc(S(N)(=O)=O)cc2)nn1C(=O)c1c(F)cccc1F  criterion not met
2  O=C1C(Cl)=C(N2C(=O)CCC2=O)C(=O)c2ccccc21      criterion met
3  NC(=O)c1ccc(-c2nc(-c3ccc4c(c3)OCCO4)c(-c3ccccn3)[nH]2)cc1  criterion not met
4       CCCCc1c(-c2ccc(OC)cc2)[nH]c2nccnc12  criterion not met
